Tested on: kochia (Kochia scoparia)
Assay: Test C greenhouse herbicide test, postemergence
Assay type: in vivo
Settings: Postemergence, 250 g ai/ha; scale 0 to 100, 0 no effect, 100 complete control; 13 to 15 d
Classification field: enter Met for Plant response rating, Kochia values not below 80, Not met for values below it.

Examples with answers:
**Q:** Reported Plant response rating, Kochia reaches at least 80 for `Cc1ccc2ccccc2c1-c1c(O)c(Cl)nn(C)c1=O` ?
**A:** Met

**Q:** Next record, please: `C#CCOC(=O)Oc1c(C)nn(C)c(=O)c1-c1c(C)sc2ccc(C)cc12`
**A:** Met

**Q:** How about this compound: `CCOC(=O)Oc1c(C)nn(C)c(=O)c1-c1c(C)ccc2ccccc12`
**A:** Met

Consider the additional compound presented here.
**Q:** Check the entry `COc1nn(C)c(=O)c(-c2c(C)ccc3ccccc23)c1OC(C)=O` : does Plant response rating, Kochia equal or exceed 80?
**A:** Met

These measurements were taken from patent US10597388B2.
